# assay.summary: Selectivity index of IC50 for african green monkey Vero cells to MFC for Cryptococcus neoformans ATCC 90113
# Type: toxicity, cell-based
# protocol.conditions: read-out: Selectivity Index
Please use criterion met whenever selectivity ratio is not below 10, and criterion not met whenever it is.

| compound | category |
| --- | --- |
| CCCCCCCCCCCCCCCCC1(O)C=CC2=[N+](C)CCCN21.[I-] (stereo not given) | criterion met |
| CCCCCCCCCCCCCCCCCCC1(O)C=CC2=[N+](C)CCCN21.[I-] (stereo not given) | criterion not met |
| CCCCCCCCCCCCC1(O)C=CC2=[N+](C)CCCN21.[I-] (stereo not given) | criterion met |
| CCCCCCCCCCC1(O)C=CC2=[N+](C)CCCN21.[I-] (stereo not given) | criterion not met |
| CCCCCCCCCCCCCCC1(O)C=CC2=[N+](C)CCCN21.[I-] (stereo not given) | criterion met |
